test system: T47D; assay: NCI tumour cell line growth inhibition, 48 h
Calls of active or inactive are those of the source. Cut-off read from the data, not from the text of the source: active = GI50 up to about 1.1 µM and inactive = higher.
Would you mind telling me the reported GI50 of each entry?

Recorded GI50, per entry:
>>> df
                                   molecule        readout_value
0  O=C1CC(=O)NC(NN2C(=O)/C(=C/C(=O)c3ccco3)N=C2c2ccccc2)=N1   70.1 µM (inactive)
1  COc1ccccc1CNCCCCCNCCCCCCCCCCNCCCCCNCc1ccccc1OC   54.7 µM (inactive)
2  O=C1c2ccccc2C(=O)N1CCSCC(CO)SCCN1C(=O)c2ccccc2C1=O (stereo unspecified)   86.9 µM (inactive)
3  COc1ccc(NC(=O)CC(=O)N2N=C(C)C(/N=N/c3ccc(C(=O)O)cc3)C2=O)cc1 (stereo unspecified)  > 100 µM (inactive)
4         Cc1ccc(C2=Nc3cccc4cccc(c34)N2)cc1  > 100 µM (inactive)

Please supply GI50 for each of the following items, keeping them in order.
1. CC(C)C(C/C=C1/CC(CO)(COC(=O)C(C)(C)C)OC1=O)C(C)C (stereo unspecified)
2. CSc1ncnc2c1cnn2Cc1cnnn1COCC(O)CO (stereo unspecified)
3. COc1ccc(NC(C)=O)c(C(=O)CCNC(C)=O)c1
4. Cn1c(N)c(/C=C/C(=O)Oc2ccccc2)c(=O)n(C)c1=O
5. Clc1ccc(OCC2NC3CCC2CC3)cn1 (stereo unspecified)
6. c1ccc2c3c(c(N4CCOCC4)nc2c1)CCCC3

1. 4.52 µM (inactive)
2. > 100 µM (inactive)
3. > 100 µM (inactive)
4. 85.3 µM (inactive)
5. 29.8 µM (inactive)
6. 16 µM (inactive)
